Measured values drawn from the supplement of paper PMC6555819 for this set.

system: LXRb homodimer (NR concentration 270 nM); assay: PBM binding z-score (relative to random genomic background probes); higher = stronger binding; sequences stand for … in GC…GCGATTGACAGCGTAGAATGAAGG
Tick 1 if PBM binding z-score is 0.4 or greater. Tick -1 if PBM binding z-score is less than 0.4.

• TAGCCTAAGTCATGCGGGCCAGTATAGTGTCGGC = -1
• CAAACTAGGTCACCGAAAGGTCAAAGTCCGCATG = 1
• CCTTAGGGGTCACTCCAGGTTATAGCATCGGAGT = 1
• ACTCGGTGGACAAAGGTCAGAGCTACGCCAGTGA = -1
• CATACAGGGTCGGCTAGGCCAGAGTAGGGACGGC = -1
• TATACAGGGTCAAAGGTCAGAGTACGAATGTCGA = 1
• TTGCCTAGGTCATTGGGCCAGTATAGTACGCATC = -1
• AGAATGAGGTTACCAAAGGTCAGGGAAACGCTTG = 1
• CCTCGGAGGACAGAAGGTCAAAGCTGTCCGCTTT = -1
• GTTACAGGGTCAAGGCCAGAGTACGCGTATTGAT = 1
• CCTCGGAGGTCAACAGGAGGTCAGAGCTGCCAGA = 1

###

tested on: THRa homodimer (NR concentration 90 nM); test: PBM binding z-score (relative to random genomic background probes); higher = stronger binding; sequences stand for … in GC…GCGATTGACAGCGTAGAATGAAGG
readout: PBM binding z-score

* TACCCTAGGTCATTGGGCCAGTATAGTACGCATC | 1.37
* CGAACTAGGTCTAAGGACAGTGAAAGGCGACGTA | 1.96
* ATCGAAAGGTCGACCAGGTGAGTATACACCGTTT | 0.391
* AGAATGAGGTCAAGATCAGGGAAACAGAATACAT | 2.98
* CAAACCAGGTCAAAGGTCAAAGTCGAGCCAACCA | 2.57
* CCGAATAGGTTACGAGGGGGCATTCAGTGCGAAT | 0.692

###

tested on: VDR:RXRa (NR concentration 270 nM, RXRa partner concentration 90 nM); assay: PBM binding z-score (relative to random genomic background probes); higher = stronger binding; sequences stand for … in GC…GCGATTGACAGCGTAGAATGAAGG
Listing of recorded PBM binding z-score by entry.
readout: PBM binding z-score

• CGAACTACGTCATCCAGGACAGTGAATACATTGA = 0.17
• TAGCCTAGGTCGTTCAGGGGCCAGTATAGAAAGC = 0.798
• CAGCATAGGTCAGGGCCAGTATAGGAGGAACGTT = 1.4
• CGAACTAGGTCATTGACAGGACAATGAATAGTAA = 2.62
• AATACAGGGTCACGAGGCCAGAGTAGGTACGAAT = 5.41
• CGTCCAAGGTCACGGTCAGTGAAAGAGACTCGAA = 5.13
• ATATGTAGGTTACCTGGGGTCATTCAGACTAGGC = 6.78
• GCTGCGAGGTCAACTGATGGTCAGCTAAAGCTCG = 5.48
• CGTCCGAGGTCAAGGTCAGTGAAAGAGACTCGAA = 5.48
• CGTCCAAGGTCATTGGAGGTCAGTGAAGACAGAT = 7.03
• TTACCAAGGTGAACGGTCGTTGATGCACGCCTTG = 0.0102
• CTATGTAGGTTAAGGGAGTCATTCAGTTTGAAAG = 1.94
• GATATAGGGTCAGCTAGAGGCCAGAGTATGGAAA = 3.42
• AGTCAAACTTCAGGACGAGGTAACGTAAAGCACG = -0.131
• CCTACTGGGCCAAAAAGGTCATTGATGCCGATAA = 4.83
• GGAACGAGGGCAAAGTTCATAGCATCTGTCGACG = 5.05
• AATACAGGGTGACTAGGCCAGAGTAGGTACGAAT = 0.257
• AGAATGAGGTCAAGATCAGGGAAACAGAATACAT = 4.93
• CGTCAAAGGTCAAGGTCAGTGAAAGAGACTCGAA = 5.77
• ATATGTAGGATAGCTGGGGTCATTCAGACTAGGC = 4.86
• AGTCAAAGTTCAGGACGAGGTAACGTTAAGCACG = 2.97
• CCTGCTAGGTCAAAGGTCAGCTAAAGCAGCTCGC = 5.81
• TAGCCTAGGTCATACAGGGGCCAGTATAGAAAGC = 2.6
• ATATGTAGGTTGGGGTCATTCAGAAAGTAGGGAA = 6.03
• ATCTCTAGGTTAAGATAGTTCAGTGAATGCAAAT = 2.26
• ATCGAAAGGTCAAAGGTGAGTATACCCACCCGAA = 6.2
• CTCGAAAGGTCGTGCTCAGATGAGTATACCAAAC = 3.09
• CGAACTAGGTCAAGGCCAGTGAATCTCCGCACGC = 1.31
• AGTCAAAGGTCATCTAGGTAACGTAAGATATGCT = 6.04
• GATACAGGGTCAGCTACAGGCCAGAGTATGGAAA = 2.55
• CGTTCAAGGTCAAAGGTCAGTGAAGAGATGACGG = 6.9
• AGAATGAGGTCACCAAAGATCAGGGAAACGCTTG = 5.55
• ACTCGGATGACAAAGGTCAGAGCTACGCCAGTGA = 3.14
• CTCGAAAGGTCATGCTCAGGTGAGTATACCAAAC = 5.69
• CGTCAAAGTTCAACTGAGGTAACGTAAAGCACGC = 5.16
• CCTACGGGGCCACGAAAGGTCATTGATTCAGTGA = 5.53
• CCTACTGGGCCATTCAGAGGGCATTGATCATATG = 0.0939
• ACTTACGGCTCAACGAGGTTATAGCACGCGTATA = 1.53
• CGAACTAGGTCAAGGACAGTAAATCTCCGCACGC = 1.33
• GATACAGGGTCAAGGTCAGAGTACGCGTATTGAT = 5.53
• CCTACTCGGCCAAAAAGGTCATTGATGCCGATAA = 4.9
• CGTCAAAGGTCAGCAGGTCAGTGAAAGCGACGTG = 5.16
• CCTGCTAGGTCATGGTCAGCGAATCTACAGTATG = 1.5
• AGAATGAGGTTACCAAAGTTCAGGGAAACGCTTG = 5.53
• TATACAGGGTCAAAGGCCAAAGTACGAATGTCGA = 5.31
• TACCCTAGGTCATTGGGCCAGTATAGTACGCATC = 2.73
• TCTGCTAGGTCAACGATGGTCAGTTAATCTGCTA = 1.62
• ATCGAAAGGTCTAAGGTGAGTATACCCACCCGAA = 0.393
• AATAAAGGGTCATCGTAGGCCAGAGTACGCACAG = 5.33
• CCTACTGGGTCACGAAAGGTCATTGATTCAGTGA = 6.48
• CTATGTGGGTTAAGGGGGTCATTCAGTTTGAAAG = 7.5

###

Listing of recorded PBM binding z-score by entry.
system: PXR:RXRa (NR concentration 270 nM, RXRa partner concentration 90 nM); test: PBM binding z-score (relative to random genomic background probes); higher = stronger binding; sequences stand for … in GC…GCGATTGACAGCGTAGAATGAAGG
readout: PBM binding z-score

- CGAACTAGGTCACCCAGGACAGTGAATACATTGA: 1.88
- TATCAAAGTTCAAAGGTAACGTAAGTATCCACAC: 5.83
- CCTTAGGGGTCACTGACAGGTTATAGCATTTGGA: 6.32
- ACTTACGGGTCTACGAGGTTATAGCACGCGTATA: 1.03
- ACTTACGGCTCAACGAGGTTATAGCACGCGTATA: 0.645
- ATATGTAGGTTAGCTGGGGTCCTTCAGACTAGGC: 1.33
- ATCGAAAGGTCGTGAGGTAAGTATACAGAAAGGC: 3.42
- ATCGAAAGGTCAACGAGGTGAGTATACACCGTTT: 6
- CCTACTGGGCCACTAAAGGTCATTGATTCAGTGA: 5.12
- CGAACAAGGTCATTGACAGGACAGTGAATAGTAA: 4.12
- TGTATGAGGTTAAAGATCAGGGAACGTGGCGTCG: 2.38
- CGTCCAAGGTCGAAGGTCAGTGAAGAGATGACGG: 3.61

###

test system: LXRa homodimer (NR concentration 270 nM); test: PBM binding z-score (relative to random genomic background probes); higher = stronger binding; sequences stand for … in GC…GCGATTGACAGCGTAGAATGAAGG
Tick True if PBM binding z-score is 2 or greater. Tick False if PBM binding z-score is less than 2.

* TATACAAGGTCAAAGGCCAGAGTACGAATGTCGA | True
* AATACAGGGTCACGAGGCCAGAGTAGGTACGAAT | False
* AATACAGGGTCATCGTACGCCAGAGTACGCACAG | True
* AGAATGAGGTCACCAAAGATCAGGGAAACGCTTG | False
* CCTTAGGGGTCAAGGTTATAGCACGGGTGGTACG | False
* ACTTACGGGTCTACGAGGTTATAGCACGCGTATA | False
* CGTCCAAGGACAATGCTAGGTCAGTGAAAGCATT | False
* CAAACTAGGTCACAGTGGTCAAAGTCCGTGCGTA | False
* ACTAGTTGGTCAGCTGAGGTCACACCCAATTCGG | True
* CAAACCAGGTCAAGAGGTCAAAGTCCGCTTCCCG | True
* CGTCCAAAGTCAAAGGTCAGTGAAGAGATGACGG | False
* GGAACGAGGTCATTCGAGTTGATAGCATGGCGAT | False
* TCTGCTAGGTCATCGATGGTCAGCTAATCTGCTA | False
* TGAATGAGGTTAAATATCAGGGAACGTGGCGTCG | False
* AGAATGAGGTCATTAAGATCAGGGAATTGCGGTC | True
* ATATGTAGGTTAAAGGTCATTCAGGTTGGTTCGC | True
* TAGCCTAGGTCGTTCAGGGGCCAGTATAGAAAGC | False
* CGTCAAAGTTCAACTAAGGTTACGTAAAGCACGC | True
* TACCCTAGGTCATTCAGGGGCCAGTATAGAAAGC | True
* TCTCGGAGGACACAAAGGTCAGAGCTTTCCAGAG | True
* CAAAATAGGTCACAGAGGTCAAAGTCCGTGCGTA | True
* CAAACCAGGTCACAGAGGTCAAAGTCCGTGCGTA | True
* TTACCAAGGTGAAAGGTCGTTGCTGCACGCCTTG | False
* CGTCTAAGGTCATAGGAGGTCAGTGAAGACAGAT | True
